- Measured on: matriptase (Homo sapiens, UniProt Q9Y5Y6)
- Construct: purchased R&D Systems 3946-SE-010
- Sequence (Q9Y5Y6 615-855 limits assumed): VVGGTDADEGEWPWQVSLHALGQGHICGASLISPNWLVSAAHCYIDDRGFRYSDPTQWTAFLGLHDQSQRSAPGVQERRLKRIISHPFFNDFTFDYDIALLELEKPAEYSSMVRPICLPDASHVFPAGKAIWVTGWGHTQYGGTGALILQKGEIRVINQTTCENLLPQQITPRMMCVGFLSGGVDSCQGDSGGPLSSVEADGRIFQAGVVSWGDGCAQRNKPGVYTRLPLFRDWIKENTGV
- Procedure summary: Fluorescent kinetic enzyme assay of matriptase activity (Boc-QAR-AMC)
- Assay type: biochemical
- Conditions: Table 2; read-out: Matriptase (IC50 nM)
Measured endpoint: log10 IC50 (log10 of the value in nM)

Compound	Measured endpoint	Result
CC(C)C[C@@H]1NC(=O)[C@@H](N)CC(=O)NCCCC[C@@H](C(=O)N[C@@H](CCCNC(=N)N)C(=O)c2nc3ccccc3s2)NC1=O [VD2055]	log10 IC50	-0.07
CC(=O)N[C@H]1CC(=O)N(C)CCCC[C@@H](C(=O)N[C@@H](CCCNC(=N)N)C(=O)c2nc3ccccc3s2)NC(=O)[C@H](CC(C)C)NC1=O [VD4192C1]	log10 IC50	2.05
CC(=O)N[C@H]1CC(=O)NCCCC[C@@H](C(=O)N[C@@H](CCCNC(=N)N)C(=O)c2nc3ccccc3s2)NC(=O)[C@H]([C@H](C)O)NC1=O [VD3157]	log10 IC50	0.57
CC(=O)N[C@H]1CC(=O)NCCCC[C@@H](C(=O)N[C@@H](CCCNC(=N)N)C(=O)c2nc3ccccc3s2)NC(=O)[C@H](C)NC1=O [VD3141]	log10 IC50	0.40
CC(=O)N[C@H]1Cc2ccc(cc2)OCCCC[C@@H](C(=O)N[C@@H](CCCNC(=N)N)C(=O)c2nc3ccccc3s2)NC(=O)[C@@H](Cc2c[nH]c3ccccc23)NC1=O [VD4162A]	log10 IC50	1.49
CC(=O)N[C@H]1CCCCNC(=O)C[C@@H](C(=O)N[C@@H](CCCNC(=N)N)C(=O)c2nc3ccccc3s2)NC(=O)[C@H](CC(C)C)NC1=O [VD2167]	log10 IC50	1.29
